Assay: Pharmacokinetics of PEGylated protease inhibitor prodrugs in rats
Format: in vivo, male Sprague-Dawley rats
Details: prodrug in plasma, mean ± SD
Recorded Cmax values for a group of compounds are listed next.
Please respond with the number in ng/mL and leave the unit unwritten.

The following compounds have reported results that may help.
COCCOCCOCCOCCOCCOC(=O)NC(C(=O)NC(Cc1ccccc1)C(CN(Cc1ccc(-c2ccccn2)cc1)NC(=O)C(NC(=O)OC)C(C)(C)C)OC(=O)COCCOC(=O)C(N)Cc1ccccc1)C(C)(C)C.Cl (stereo not shown) [mPEG5-Atazanavir-CME-phenylalanine HCl]	0.222
COCCOCCOCCOC(=O)NC(C(=O)NC(Cc1ccccc1)C(CN(Cc1ccc(-c2ccccn2)cc1)NC(=O)C(NC(=O)OC)C(C)(C)C)OC(=O)COCCOC(=O)C(N)Cc1ccccc1)C(C)(C)C.Cl (stereo not shown) [mPEG3-Atazanavir-CME-phenylalanine HCl, mPEG3-atazanavir-CME-phenylalanine]	7.98
COCCOCCOCCOC(=O)NC(C(=O)NC(Cc1ccccc1)C(CN(Cc1ccc(-c2ccccn2)cc1)NC(=O)C(NC(=O)OC)C(C)(C)C)OC(=O)COCCOC(=O)C(N)CC(C)C)C(C)(C)C.Cl (stereo not shown) [mPEG3-Atazanavir-CME-Leucine HCl, mPEG3-Atazanavir-CME-Leucine]	11.5

We next turn to a different compound, shown below.
Input: Look up and state reported Cmax for COCCOCCOCCOCCOCCOC(=O)NC(C(=O)NC(Cc1ccccc1)C(CN(Cc1ccc(-c2ccccn2)cc1)NC(=O)C(NC(=O)OC)C(C)(C)C)OC(=O)COCCOC(=O)C(N)CC(C)C)C(C)(C)C.Cl (stereo not shown) [mPEG5-Atazanavir-CME-Leucine HCl, mPEG5-Atazanavir-CME-Leucine]
Output: 0.45

---

Recorded MRT last Mean values for a group of compounds are listed next.
Assay: Pharmacokinetics of released PEGylated protease inhibitor following P.O. administration of prodrugs in rats
Assay type: in vivo, male Sprague-Dawley rats
Conditions: mPEG5-atazanavir in plasma after PO administration of mPEG5-ATV or of the listed prodrug, rats (n = 4-5)
Please respond with the number in h and leave the unit unwritten.

COCCOCCOCCOCCOCCOC(=O)N[C@H](C(=O)N[C@@H](Cc1ccccc1)[C@H](CN(Cc1ccc(-c2ccccn2)cc1)NC(=O)[C@@H](NC(=O)OC)C(C)(C)C)OC(=O)[C@H](Cc1ccccc1)NC(=O)[C@@H](N)Cc1ccccc1)C(C)(C)C.Cl [Phe-Phe-mPEG5-Atazanavir HCl, Phe-Phe-mPEG5-atazanavir hydrochloride]	9.22
COCCOCCOCCOCCOCCOC(=O)N[C@H](C(=O)N[C@@H](Cc1ccccc1)[C@H](CN(Cc1ccc(-c2ccccn2)cc1)NC(=O)[C@@H](NC(=O)OC)C(C)(C)C)OP(=O)(O)O)C(C)(C)C [mPEG5-ATV-phosphate, mPEG5-atazanavir phosphate]	10.9
COCCOCCOCCOCCOCCOC(=O)N[C@H](C(=O)N[C@@H](Cc1ccccc1)[C@@H](O)CN(Cc1ccc(-c2ccccn2)cc1)NC(=O)[C@@H](NC(=O)OC)C(C)(C)C)C(C)(C)C	9.61

We next turn to a different compound, shown below.
Input: Look up and state reported MRT last Mean for CCC(=O)OC(CN(Cc1ccc(-c2ccccn2)cc1)NC(=O)C(NC(=O)OC)C(C)(C)C)C(Cc1ccccc1)NC(=O)C(NC(=O)OCCOCCOCCOCCOCCOC)C(C)(C)C (stereo not shown) [C2H5CO-mPEG5-ATV, mPEG5-Atazanavir Propionate]
Output: 4.04
